tested on: NCI-H322M lung; assay: NCI-60 one-dose screen, 48 h (100 = growth as untreated, 0 = no growth, -100 = all killed); conditions: 10 µM unless noted
About 83,000 compounds went through this panel and 20% of them were active in at least one assay; those are over-represented in the sample as a whole.
Decide by growth: equal to or exceeding 90% means Y, less means N.

Examples from the recorded data:
N/C(=N\C(N)=N\c1nc2ccccc2s1)c1ccnc(Br)c1 :: Y
COc1ccc(/C=C/c2nc(Nc3ccc(Cl)cc3)c3ccccc3n2)cc1 :: N

For the next question, use this molecule.
Input: Would you say Cc1cc(Cl)nc(N(CCNc2ccnc3cc(Cl)ccc23)Cc2ccccn2)n1 shows growth at minimum 90%?
Output: N

###

test system: MALME-3M melanoma; test: NCI-60 one-dose screen, 48 h (100 = growth as untreated, 0 = no growth, -100 = all killed); details: 10 µM unless noted
This is part of a sample that, as a whole, favours compounds with a hit. Of some 83,000 tested, about 20% had one in any assay.
Listed next: entries and their corresponding growth.
Report the figure in % without appending any unit label.

Check out these entries, answers already filled in.
CN1CCN(C(=O)[C@]23CCC(C)(C)C[C@H]2C2=CC[C@@H]4[C@@]5(C)C/C(=C/c6ccncc6)C(=O)C(C)(C)[C@@H]5CC[C@@]4(C)[C@]2(C)CC3)CC1 :: 57.7
COc1cc2nc(-c3ccc(Cl)cc3)cc(OCCCN3CCOCC3)c2cc1OC :: 64.9
O=C(NNc1nc2c(F)cccc2n2cccc12)c1cnccn1 :: 18.3

Input: I would be grateful if you could share the reported growth for CCCCCCCC(=O)OCC/C=C/C1OC1C1OC(=O)/C=C\C=C\C(=O)N(C(C)=O)C(=O)/C=C(/C)CCC2OC2C1OC(=O)NC(C)=O (stereo not given) .
Output: 123

###

system: SK-MEL-5 melanoma; test: NCI-60 one-dose screen, 48 h; settings: 10 µM unless noted
Compounds without any hit were thinned out: in the full panel of roughly 83,000, 20% have a hit. Activity calls are given as the source filed them. The calls were made as follows: active = growth percent below 10; inactive = the rest.
Would you mind answering with one of these outcomes? active, inactive

COc1ccc(CNCCN2C(=O)c3ccc4c5c(ccc(c35)C2=O)C(=O)N(CCNCc2ccc(OC)c(OC)c2OC)C4=O)c(OC)c1OC :: active

Note: attention shifts to another entry.
Input: Which result was noted for this compound in the test: COc1ccc(/C=C2\Oc3cc(OCCCCCN4CCCCC4)ccc3C2=O)cc1OC
Output: inactive

###

tested on: OVCAR-5 ovarian; test: NCI-60 one-dose screen, 48 h (100 = growth as untreated, 0 = no growth, -100 = all killed); settings: 10 µM unless noted
About 83,000 compounds went through this panel and 20% of them were active in at least one assay; those are over-represented in the sample as a whole.
READOUT: growth (%)
Give the value in % but do not write % after it.

O=C(C[n+]1cccc2ccccc21)c1ccc(O)c(O)c1 :: 88
COc1cc(OC)cc(C(=O)C[n+]2cccc3cc[nH]c32)c1 :: 98.9
COC(=O)CNC(=O)[C@]12CCC(C)(C)C[C@H]1C1=CC[C@@H]3[C@@]4(C)Cc5c([nH]c6ccccc56)C(C)(C)[C@@H]4CC[C@@]3(C)[C@]1(C)CC2 :: 95.4

Input: Query: growth; subject: O=C1/C=C/[C@@H](O)[C@@H]2C[C@@H](O)C[C@H]2/C=C/CCC[C@H](CCc2ccc3ncccc3c2)O1
Output: 27.5

Input: Fill in: growth of N=C1C(c2nc3ccccc3s2)=C(O)CN1c1cc(Cl)cc(Cl)c1 is ___
Output: 87

Input: What measured growth goes with COc1ccc(CCn2cncc2-c2c[nH]c3ccccc23)cc1 ?
Output: 90.2

Input: What does the data say about its growth? Entry: N#C/C(=C\c1ccccn1)c1nc2cc(Cl)ccc2s1
Output: 96.8

###

tested on: KM12 colon; test: NCI-60 one-dose screen, 48 h (100 = growth as untreated, 0 = no growth, -100 = all killed); details: 10 µM unless noted
About 83,000 compounds went through this panel and 20% of them were active in at least one assay; those are over-represented in the sample as a whole.
Dear colleague, classification is by growth, with ranges listed here: I: < 30%; II: ≥ 30% and < 90%; III: ≥ 90%

Worked examples, 5 molecules total:
O=C(Nc1ccccc1)Nc1ccc2cc3ccc(NC(=O)Nc4ccccc4)cc3nc2c1 :: II
CCOC(=O)C1=C(C)NC(SCc2cc(=O)oc3ccc(F)cc23)=N[C@@H]1c1cccc2ccccc12 :: III
O=C(CCN1CCCC1)c1ccc([N+](=O)[O-])cc1 :: III
O=C(CCN1CCCC1)Nc1ccc2c(Nc3ccc(Br)cc3)c3ccccc3nc2c1 :: I
C=C1C(=O)O[C@H]2[C@H]1CC/C(CNC(=O)c1cccc3ccccc13)=C\CC[C@@]1(C)O[C@@H]21 :: II

Input: State the band of COc1ccccc1NS(=O)(=O)c1cccc(C(=O)Nc2ccc(Br)cc2)c1
Output: II

Input: Bin? Cc1cc2nc3c4cc([N+](=O)[O-])ccc4n(CCN(C)C)c3nc2cc1C
Output: I

Input: Exam item: assign ClC1=C(Br)C(Br)(Br)C(=C(Br)Br)C1(Br)Br to the correct category.
Output: III

Input: Band of COc1cccc(-c2cc(C(=O)Nc3ccc(/C=C/c4ccc(OC5CCN(C)CC5)cc4)cc3)ccc2OC)c1 ?
Output: I

###

system: BT-549 breast; assay: NCI-60 one-dose screen, 48 h (100 = growth as untreated, 0 = no growth, -100 = all killed); details: 10 µM unless noted
The panel holds about 83,000 compounds, 20% with a hit somewhere; the sample as a whole holds those more often.
READOUT: growth (%)
Give just the numeric value; % need not be written.

CNC(=O)c1cc(Cn2nc(C)c(NC(=O)Nc3ccc(Cl)c(C(F)(F)F)c3)c2C)ccn1 :: 98.6

Input: Form: Entry = COc1cccc(C(=O)NNc2nc(Cl)nc(N3CCN(C(c4ccccc4)c4ccccc4)CC3)n2)c1 | System = BT-549 breast | growth = ____
Output: 81.6

Input: Observed growth on BT-549 breast for COc1ccccc1NC(=O)C1CC(c2ccc(F)cc2)=NO1 (centres undefined) , please.
Output: 112

Input: Query the reported growth for BT-549 breast; item: Cn1c(N2NC(=O)C(N=Nc3ccc(S(N)(=O)=O)cc3)C2=O)nc(-c2ccco2)c(C#N)c1=O (centres undefined)
Output: 109

###

test system: 786-0 renal; test: NCI-60 one-dose screen, 48 h; details: 10 µM unless noted
This is part of a sample that, as a whole, favours compounds with a hit. Of some 83,000 tested, about 20% had one in any assay. Active and inactive are the calls of the source. Rule for the calls: active = growth percent below 10; inactive = the rest.
One label from this list, please: t (active), f (inactive)

Worked examples follow.
O=C1/C=C/[C@@H](O)[C@@H]2C[C@@H](O)C[C@H]2/C=C/CCC[C@H](CCc2cccc3ccccc23)O1 :: t
CCN1C(=O)N(CC)C2Nn3c(s/c(=C\c4ccc(OC)cc4)c3=O)=NC21 (stereo unspecified) :: f
O=C1Nc2cc(-c3ccc(NC(=O)C4CC4)cc3)ccc2/C1=C/c1ccc[nH]1 :: f
Cc1c2cc[nH]c(=O)c2c(C)c2c1[nH]c1cc(OCCN3CCN(C)CC3)ccc12 :: f
NC(=NCCCOc1ccc(F)cc1)Nc1ccc(I)cc1 :: f
CC(C)(C)c1cc(/C=N/NC(=O)c2ccccc2NC(=O)c2cccs2)c(O)c(C(C)(C)C)c1 :: f

Input: Returns: the outcome recorded for COC1=CC(=O)c2ccccc2C1=O in this assay.
Output: f

Input: Query: recorded result category for Cc1ccc(-c2[nH][nH]c(=O)c2-c2nc3ccccc3s2)cc1 in this test
Output: f

Input: Assay result, entry COc1cc2oc(-c3cccc(C(=O)Nc4ccc5c(c4)OCO5)c3)cc(=O)c2c(O)c1OC — outcome?
Output: f

Input: Recorded test call requested for O=C(O)c1ccc(-c2nn(-c3ccc(C(F)(F)F)cc3)cc2CNc2ccc(Oc3ccccc3)cc2)cc1
Output: f

###

tested on: 786-0 renal; experiment: NCI-60 one-dose screen, 48 h; details: 10 µM unless noted
The panel holds about 83,000 compounds, 20% with a hit somewhere; the sample as a whole holds those more often. The source made the active and inactive calls. How the source made its calls: active means growth percent below 10; inactive means the rest.
Can you answer with just one of these options? y = active, n = inactive

A selection of reference data follows.
CC(=O)N1c2ccccc2NC2=C(C(=O)NC2(C)C)C1c1ccco1 (stereo unspecified) :: n
O=S(=O)(NCCCNc1nccc(-c2c(-c3cccc(O)c3)nc3occn23)n1)c1ccc(Cl)cc1 :: n
Cc1c(C(=O)NCCC(=O)NO)sc2ncnc(Nc3ccc(NC(=O)Nc4cccc(C(F)(F)F)c4)cc3)c12 :: n

Input: Assay result, entry C=C1C(=O)O[C@H]2[C@H]1CC/C(CNC(=O)/C=C/c1ccccc1)=C\CC[C@@]1(C)O[C@@H]21 — outcome?
Output: y

Input: Fill in: this test's call for O=[N+]([O-])c1ccc(N=Nc2cc(S(=O)(=O)O)c3cccc(S(=O)(=O)O)c3c2O)cc1 is ___
Output: n

Input: Called result for COc1cccc(-c2cc(C(=O)Nc3ccc(/C=C/c4ccc(OC5CCN(C)CC5)cc4)cc3)ccc2OC)c1
Output: y
